Measured GI50 of individual entries
Assay: Antiproliferative activity against human WM266.4 cells after 6 days by SRB assay
Type: functional
Conditions: WM 266-4, 144 h
Response body: numeric value in µM, unit text excluded.

Past entries and their recorded results:
cpdSmiles | GI50 (µM)
O=C(Nc1cc(C(F)(F)F)ccc1F)c1cccc(Oc2ccnc3[nH]c(=O)[nH]c23)c1 | 31
Cc1ccc(NC(=O)c2cccc(OC(F)(F)F)c2)cc1Oc1ccnc2[nH]c(=O)[nH]c12 | 38
O=C(Nc1cccc(Oc2ccnc3[nH]c(=O)[nH]c23)c1)c1cccc(-n2ccnc2)c1 | 6.2
O=C(Nc1cc(F)cc(Oc2ccnc3[nH]c(=O)[nH]c23)c1)c1cccc(OC(F)(F)F)c1 | 2.4
O=C(Nc1cc(Oc2ccnc3[nH]c(=O)[nH]c23)c(Cl)cc1Cl)c1cccc(OC(F)(F)F)c1 | 1.2
O=C(Nc1cccc(Oc2ccnc3[nH]c(=O)[nH]c23)c1)c1cc(Cl)cc(C(F)(F)F)c1 | 3.3
O=C(Nc1cccc(Oc2ccnc3[nH]c(=O)[nH]c23)c1)c1cc(Cl)cc(OC(F)(F)F)c1 | 6.5
O=C(Nc1cccc(Oc2ccnc3[nH]c(=O)[nH]c23)c1)Nc1ccc(Cl)c(C(F)(F)F)c1 | 4.2

Ask: Could you share which GI50 value was measured for O=C(CCc1ccccc1)Nc1cccc(Oc2ccnc3[nH]c(=O)[nH]c23)c1 ?
Reply: 30.9

Ask: Repeat for the following compound: O=C(Cc1cccc(C(F)(F)F)c1)Nc1cccc(Oc2ccnc3[nH]c(=O)[nH]c23)c1
Reply: 25.7

Ask: Repeat for the following compound: O=C(Nc1cccc(Oc2ccnc3[nH]c(=O)[nH]c23)c1)c1ccc(Cl)cc1
Reply: 9.1

Ask: Repeat for the following compound: O=C(Nc1cccc(F)c1)Nc1cccc(Oc2ccnc3[nH]c(=O)[nH]c23)c1
Reply: 3.3

Ask: Repeat for the following compound: CC(C)(C)c1cccc(C(=O)Nc2cccc(Oc3ccnc4[nH]c(=O)[nH]c34)c2)c1
Reply: 1.83

Ask: Repeat for the following compound: O=C(Nc1cc(Cl)cc(Oc2ccnc3[nH]c(=O)[nH]c23)c1)c1cccc(OC(F)(F)F)c1
Reply: 1.9

Ask: Repeat for the following compound: O=C(Nc1cc(Oc2ccnc3[nH]c(=O)[nH]c23)ccc1Cl)c1cccc(OC(F)(F)F)c1
Reply: 35

Ask: Repeat for the following compound: O=C(Nc1cccc(Oc2ccnc3[nH]c(=O)[nH]c23)c1)c1cnn(-c2ccccc2)c1C(F)(F)F
Reply: 3.3

Ask: Repeat for the following compound: O=C(Nc1cccc(Oc2ccnc3[nH]c(=O)[nH]c23)c1)c1cccc(N2CCCCC2)c1
Reply: 9.6

---

Target: Serine/threonine-protein kinase B-raf (Homo sapiens, UniProt P15056, V600E)
Sequence (P15056 2-766 V600E limits assumed): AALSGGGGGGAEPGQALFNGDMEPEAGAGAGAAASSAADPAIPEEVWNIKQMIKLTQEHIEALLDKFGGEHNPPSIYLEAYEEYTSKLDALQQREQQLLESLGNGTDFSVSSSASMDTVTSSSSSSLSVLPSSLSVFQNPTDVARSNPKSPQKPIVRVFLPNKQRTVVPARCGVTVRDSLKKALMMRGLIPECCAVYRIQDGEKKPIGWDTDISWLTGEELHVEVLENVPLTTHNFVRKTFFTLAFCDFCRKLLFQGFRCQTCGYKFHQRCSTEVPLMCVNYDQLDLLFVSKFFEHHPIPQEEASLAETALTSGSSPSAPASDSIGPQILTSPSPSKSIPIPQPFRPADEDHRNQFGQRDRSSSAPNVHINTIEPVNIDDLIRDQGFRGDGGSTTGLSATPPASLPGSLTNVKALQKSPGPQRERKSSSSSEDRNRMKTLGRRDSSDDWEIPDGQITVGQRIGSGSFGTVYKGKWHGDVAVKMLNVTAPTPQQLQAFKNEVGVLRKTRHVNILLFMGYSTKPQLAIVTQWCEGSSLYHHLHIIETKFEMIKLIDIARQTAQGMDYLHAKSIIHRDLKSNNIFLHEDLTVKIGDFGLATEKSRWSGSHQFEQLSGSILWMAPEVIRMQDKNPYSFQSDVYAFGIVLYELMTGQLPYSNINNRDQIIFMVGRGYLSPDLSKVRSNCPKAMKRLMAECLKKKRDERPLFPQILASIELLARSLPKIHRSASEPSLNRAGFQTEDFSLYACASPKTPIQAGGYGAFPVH
Assay: Inhibition of human BRAF V600E mutant expressed in Sf9 cells
quantityKind: pIC50
Scale explanation: pIC50 corresponds to minus log10 of a concentration expressed in moles per litre.

Past entries and their recorded results:
cpdSmiles | pIC50
O=C(Nc1cccc(Oc2ccnc3[nH]c(=O)[nH]c23)c1)c1cc(OC(F)(F)F)ccc1F | 7.37
O=C(Nc1cc(Oc2ccnc3[nH]c(=O)[nH]c23)ccc1Cl)c1cccc(OC(F)(F)F)c1 | 6.62
O=C(Nc1cccc(Oc2ccnc3[nH]c(=O)[nH]c23)c1)c1cccc(SC(F)(F)F)c1 | 8.30

Ask: Value wanted: pIC50 (Serine/threonine-protein kinase B-raf (Homo sapiens, UniProt P15056, V600E)) of entry O=c1[nH]c2nccc(Oc3cccc(NS(=O)(=O)c4cccc5ccccc45)c3)c2[nH]1
Reply: 4.60

---

Target: Serine/threonine-protein kinase B-raf (Homo sapiens, UniProt P15056, V600E)
Assay: Inhibition of BRAF V600E mutant-mediated ERK phosphorylation in human WM266.4 cells
Assay type: cell-based
Categories are assigned from the measured IC50 using these intervals: bucket 1: < 20 µM; bucket 2: ≥ 20 µM and < 40 µM; bucket 3: ≥ 40 µM

As a guide, the following entries are already answered.
cpdSmiles | targetOrSystem | assignedLabel
O=C(Nc1cccc(Oc2ccnc3[nH]c(=O)[nH]c23)c1)c1ccc(Cl)cc1 | Serine/threonine-protein kinase B-raf (Homo sapiens, UniProt P15056, V600E) | bucket 3
O=c1[nH]c2nccc(Oc3cccc(NS(=O)(=O)c4ccccc4)c3)c2[nH]1 | Serine/threonine-protein kinase B-raf (Homo sapiens, UniProt P15056, V600E) | bucket 2
O=c1[nH]c2nccc(Oc3cccc(NCc4cccc(OC(F)(F)F)c4)c3)c2[nH]1 | Serine/threonine-protein kinase B-raf (Homo sapiens, UniProt P15056, V600E) | bucket 3
Cc1ccc(Oc2ccnc3[nH]c(=O)[nH]c23)cc1NC(=O)c1cccc(OC(F)(F)F)c1 | Serine/threonine-protein kinase B-raf (Homo sapiens, UniProt P15056, V600E) | bucket 3
O=C(Nc1cccc(Oc2ccnc3[nH]c(=O)[nH]c23)c1)c1cc(OC(F)(F)F)ccc1F | Serine/threonine-protein kinase B-raf (Homo sapiens, UniProt P15056, V600E) | bucket 1

Ask: Category of O=C(Nc1cccc(Oc2ccnc3[nH]c(=O)[nH]c23)c1)c1cnn(-c2ccccc2)c1C(F)(F)F , please.
Reply: bucket 2

Ask: Repeat for the following molecule: O=C(Cc1cccc(OC(F)(F)F)c1)Nc1cccc(Oc2ccnc3[nH]c(=O)[nH]c23)c1
Reply: bucket 1

Ask: Repeat for the following molecule: O=c1[nH]c2nccc(Oc3cccc(NS(=O)(=O)c4cccc5ccccc45)c3)c2[nH]1
Reply: bucket 2

Ask: Repeat for the following molecule: O=C(Nc1ccc(Cl)c(C(F)(F)F)c1)c1cccc(Oc2ccnc3[nH]c(=O)[nH]c23)c1
Reply: bucket 1

Ask: Repeat for the following molecule: O=c1[nH]c2nccc(Oc3cccc(NS(=O)(=O)c4cccc(OC(F)(F)F)c4)c3)c2[nH]1
Reply: bucket 3

Ask: Repeat for the following molecule: O=c1[nH]c2nccc(Oc3cccc(NS(=O)(=O)c4cccc(C(F)(F)F)c4)c3)c2[nH]1
Reply: bucket 3

Ask: Repeat for the following molecule: O=C(Nc1cccc(F)c1)Nc1cccc(Oc2ccnc3[nH]c(=O)[nH]c23)c1
Reply: bucket 3

Ask: Repeat for the following molecule: O=C(Nc1cccc(Oc2ccnc3[nH]c(=O)[nH]c23)c1)c1ccc(C(F)(F)F)cc1
Reply: bucket 3

Ask: Repeat for the following molecule: O=C(Nc1cccc(Oc2ccnc3[nH]c(=O)[nH]c23)c1)c1cccc2c1OCCCO2
Reply: bucket 3

Ask: Repeat for the following molecule: O=C(Cc1ccccc1)Nc1cccc(Oc2ccnc3[nH]c(=O)[nH]c23)c1
Reply: bucket 3

---

Measured pIC50 of individual entries
Biological target: Serine/threonine-protein kinase B-raf (Homo sapiens, UniProt P15056, V600E)
Assay: Inhibition of BRAF V600E mutant-mediated ERK phosphorylation in human WM266.4 cells
Format: cell-based
pIC50: −log10 of the molar value.

cpdSmiles | pIC50
Cc1ccc(-n2nc(C(C)(C)C)cc2NC(=O)Nc2cccc(Oc3ccnc4[nH]c(=O)[nH]c34)c2)cc1 | 6.08
COc1ccc(NC(=O)c2cccc(OC(F)(F)F)c2)cc1Oc1ccnc2[nH]c(=O)[nH]c12 | < 4.00
Cc1ccc(NC(=O)c2cccc(OC(F)(F)F)c2)cc1Oc1ccnc2[nH]c(=O)[nH]c12 | < 4.00
O=C(Nc1cc(Oc2ccnc3[nH]c(=O)[nH]c23)ccc1Cl)c1cccc(OC(F)(F)F)c1 | < 4.00
O=C(Nc1cccc(Oc2ccnc3[nH]c(=O)[nH]c23)c1)c1ccccc1 | < 4.00

Ask: Could you share which pIC50 value was measured for O=C(Nc1cccc(Oc2ccnc3[nH]c(=O)[nH]c23)c1)c1cccc2c1OCCO2 ?
Reply: < 4.00

Ask: Repeat for the following compound: O=C(Nc1cccc(Oc2ccnc3[nH]c(=O)[nH]c23)c1)Nc1ccc(F)c(F)c1
Reply: 4.41

Ask: Repeat for the following compound: O=C(Nc1cc(Oc2ccnc3[nH]c(=O)[nH]c23)c(Cl)cc1Cl)c1cccc(OC(F)(F)F)c1
Reply: < 4.00

Ask: Repeat for the following compound: O=C(Nc1cccc(Oc2ccnc3[nH]c(=O)[nH]c23)c1)Nc1cc(C(F)(F)F)ccc1N1CCOCC1
Reply: 4.38

---

Target: Serine/threonine-protein kinase B-raf (Homo sapiens, UniProt P15056, V600E)
Experiment: Inhibition of human BRAF V600E mutant expressed in Sf9 cells
quantityKind: pIC50
Scale explanation: pIC50 corresponds to minus log10 of a concentration expressed in moles per litre.

Past entries and their recorded results:
cpdSmiles | quantityKind | number
O=C(Nc1cccc(Oc2ccnc3[nH]c(=O)[nH]c23)c1)c1ccc2sccc2c1 | pIC50 | 4.66
O=C(Nc1cccc(Oc2ccnc3[nH]c(=O)[nH]c23)c1)c1cccc(OC(F)(F)F)c1F | pIC50 | 7.82
O=C(Nc1cccc(OC(F)(F)C(F)F)c1)c1cccc(Oc2ccnc3[nH]c(=O)[nH]c23)c1 | pIC50 | 6.62
O=C(Nc1cccc(Oc2ccnc3[nH]c(=O)[nH]c23)c1)c1cccc(N2CCCC2)c1 | pIC50 | 6.94
O=C(Nc1cccc(Oc2ccnc3[nH]c(=O)[nH]c23)c1)c1cccc(N2CCCCC2)c1 | pIC50 | 7.33

Ask: Value wanted: pIC50 (Serine/threonine-protein kinase B-raf (Homo sapiens, UniProt P15056, V600E)) of entry O=C(Nc1ccc(Oc2ccnc3[nH]c(=O)[nH]c23)cc1)c1ccc(Cl)c(C(F)(F)F)c1
Reply: 4.80
